Each record here notes measured pIC50.
- experimentalSystem: BRD4-BD1 (Homo sapiens (Human))
- experimentNotes: BRD4 AlphaScreen assay (BRD4-BD1)
- protocolConditions: biotin-labeled tetra-acetylated histone H4 peptide
pIC50: −log10 of the molar value.

Ask: Name the recorded pIC50 of the item CNC(=O)c1cc2c(c(-c3cn(C)c(=O)c4[nH]ccc34)c1)OC(C(C)C)C(=O)N2 (stereo not drawn) in your answer.
Reply: ≥ 7.00

Ask: Give pIC50 for CC(C)C1Oc2c(cc(CO)cc2-c2cn(C)c(=O)c3[nH]ccc23)NC1=O (stereo not drawn)
Reply: ≥ 7.00

Ask: Return pIC50 (reported value) for this molecule: COc1cc2c(c(-c3cn(C)c(=O)c4[nH]ccc34)c1)OC(C(C)C)C(=O)N2 (single isomer, unassigned) [Example 9A]
Reply: ≥ 7.00

====

- experimentalSystem: BRD4-BD1 (Homo sapiens (Human), UniProt O60885)
- experimentNotes: BRD4 AlphaScreen assay (BRD4-BD1)
- protocolConditions: biotin-labeled tetra-acetylated histone H4 peptide
pIC50: −log10 of the molar value.
assayEndpoint: pIC50

Please review the entries below; each comes with its answer.
INSERT INTO results (compound, assayendpoint, observedvalue) VALUES
  ('CNC(=O)CN1C(=O)C(C(C)C)Oc2c(-c3cn(C)c(=O)c4[nH]ccc34)cc(OC)cc21 (stereo not shown)', 'pIC50', '6.00 to 7.00'),
  ('COc1cc2c(c(-c3cn(C)c(=O)c4[nH]ncc34)c1)OC(C1CCCC1)C(=O)N2 (single isomer, unassigned) [Example 42A]', 'pIC50', '≥ 7.00'),
  ('COc1cc2c(c(-c3cn(C)c(=O)c4[nH]ccc34)c1)OC(C(C)C)C(=O)N2 (single isomer, unassigned) [Example 9B]', 'pIC50', '≥ 7.00'),
  ('COc1cc2c(c(-c3cn(C)c(=O)c4[nH]ncc34)c1)OC(C)(C)C(=O)N2', 'pIC50', '≥ 7.00'),
  ('COc1cc(-c2cn(C)c(=O)c3[nH]ccc23)c2c(c1)N(C)C(=O)C(C(C)C)O2 (stereo not shown)', 'pIC50', '≥ 7.00');

Ask: Give pIC50 for the following compound: Cn1cc(-c2cccc3c2OC(c2ccccc2)C(=O)N3)c2cc[nH]c2c1=O (stereo not shown)
Reply: ≥ 7.00

Ask: Hello, please tell me recorded pIC50 for this one: COc1cc(-c2cn(C)c(=O)c3[nH]ccc23)c2c(c1)N(CC(=O)N1CCN(C)CC1)C(=O)C(C(C)C)O2 (stereo not shown)
Reply: 6.00 to 7.00

====

Reported IC50 values for the following compounds.
- experimentalSystem: BRD4-BD1 (Homo sapiens (Human), UniProt O60885)
- experimentNotes: BRD4 AlphaScreen assay (BRD4-BD1)
- protocolConditions: biotin-labeled tetra-acetylated histone H4 peptide

INSERT INTO measurements (compound, assayendpoint, observedvalue) VALUES
  ('CCC1Oc2c(-c3cn(C)c(=O)c4[nH]ccc34)cccc2N(C)C1=O (stereo not shown) [Example 8]', 'IC50', '100 to 1000 nM'),
  ('COc1cc(-c2cn(C)c(=O)c3[nH]ccc23)c2c(c1)N(CC(=O)O)C(=O)C(C(C)C)O2 (stereo not shown) [Example 11]', 'IC50', '100 to 1000 nM'),
  ('CC(C)C1Oc2c(-c3cn(C)c(=O)c4[nH]ccc34)cc(S(=O)(=O)C(C)C)cc2N(C)C1=O (stereo not shown) [Example 56]', 'IC50', '≤ 100 nM'),
  ('CC(O)c1cc2c(c(-c3cn(C)c(=O)c4[nH]ccc34)c1)OC(C(C)C)C(=O)N2 (stereo not shown) [Example 50]', 'IC50', '≤ 100 nM');

Ask: Provide IC50, system BRD4-BD1 (Homo sapiens (Human), UniProt O60885), entry COc1cc(-c2cn(C)c(=O)c3[nH]ccc23)c2c(c1)N(C)CC(C(C)C)O2 (stereo not shown) [Example 22]
Reply: 100 to 1000 nM
